Data origin: patent US6750228B1

target_of_assay: MMP-2 (Homo sapiens, UniProt P08253)
Construct: made in house; provided by Dr. Gregory Goldberg, Washington University
Sequence (P08253 110-660): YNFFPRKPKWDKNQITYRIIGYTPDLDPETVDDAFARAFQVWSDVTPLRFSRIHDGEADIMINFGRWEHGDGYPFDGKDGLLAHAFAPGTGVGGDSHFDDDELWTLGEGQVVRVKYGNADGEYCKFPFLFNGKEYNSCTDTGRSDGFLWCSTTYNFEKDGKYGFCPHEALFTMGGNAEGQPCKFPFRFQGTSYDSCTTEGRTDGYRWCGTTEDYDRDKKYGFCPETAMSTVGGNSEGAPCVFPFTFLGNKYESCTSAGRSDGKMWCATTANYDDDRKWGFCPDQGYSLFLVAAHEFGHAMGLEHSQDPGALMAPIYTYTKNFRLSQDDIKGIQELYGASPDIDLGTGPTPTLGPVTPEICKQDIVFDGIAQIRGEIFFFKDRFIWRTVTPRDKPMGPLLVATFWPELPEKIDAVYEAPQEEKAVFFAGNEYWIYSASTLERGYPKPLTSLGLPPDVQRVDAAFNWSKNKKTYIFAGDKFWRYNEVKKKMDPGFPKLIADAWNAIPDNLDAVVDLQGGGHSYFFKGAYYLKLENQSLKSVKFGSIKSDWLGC
method_notes: biochemical
recorded_conditions: recombinant human MMP-2, MCA peptide substrate 4 μM, pH 7.5, room temperature; read-out: MMP-2 IC50
endpoint_name: log10 of IC50 (log10 of the value in µM)

[[record]]
compound = "Cc1ccc(OC2CCN(c3ccc(S(=O)(=O)C4(C(=O)NO)CCOCC4)cc3)CC2)cc1C [Example 637]"
target_of_assay = "MMP-2 (Homo sapiens, UniProt P08253)"
endpoint_name = "log10 of IC50"
meas_value = -1.66

[[record]]
compound = "COc1cccc(CO[C@@H]2CCN(c3ccc(S(=O)(=O)C4(C(=O)NO)CCN(C5CC5)CC4)cc3)C2)c1 [Example 398]"
target_of_assay = "MMP-2 (Homo sapiens, UniProt P08253)"
endpoint_name = "log10 of IC50"
meas_value = -1.15

[[record]]
compound = "O=C(NO)C1(S(=O)(=O)c2ccc(N3CCC(OCc4ccccc4)CC3)cc2)CCOCC1 [Example 165]"
target_of_assay = "MMP-2 (Homo sapiens, UniProt P08253)"
endpoint_name = "log10 of IC50"
meas_value = -1.31

[[record]]
compound = "O=C(NO)C1(S(=O)(=O)c2ccc(N3CCC(Oc4cc(F)cc(F)c4)CC3)cc2)CCOCC1 [Example 545]"
target_of_assay = "MMP-2 (Homo sapiens, UniProt P08253)"
endpoint_name = "log10 of IC50"
meas_value = -0.92

[[record]]
compound = "O=C(NO)C1(S(=O)(=O)c2ccc(N3CCC(OCc4cccc(OC(F)(F)F)c4)CC3)cc2)CCOCC1 [Example 173]"
target_of_assay = "MMP-2 (Homo sapiens, UniProt P08253)"
endpoint_name = "log10 of IC50"
meas_value = -0.48

[[record]]
compound = "O=C(NO)C1(S(=O)(=O)c2ccc(N3CCN(c4ccc(F)cc4F)CC3)cc2)CCOCC1 [Example 87]"
target_of_assay = "MMP-2 (Homo sapiens, UniProt P08253)"
endpoint_name = "log10 of IC50"
meas_value = -1.81


---

target_of_assay: MMP-2 (Homo sapiens, UniProt P08253)
Construct: made in house; provided by Dr. Gregory Goldberg, Washington University
method_notes: biochemical
recorded_conditions: recombinant human MMP-2, MCA peptide substrate 4 μM, pH 7.5, room temperature; read-out: MMP-2 IC50
Protocol: The compounds prepared in the manner described in the Examples above were assayed for activity by an in vitro assay. […] Briefly, 4-aminophenylmercuric acetate (APMA) or trypsin-activated MMPs were incubated with various concentrations of the inhibitor compound at room temperature for 5 minutes. […] Inhibition was measured as a reduction in fluorescent intensity as a function of inhibitor concentration, using a Perkin Elmer L550 plate reader. The IC50 values were calculated from those values. […]
Simple rule here: IC50 less than 2000 nM is class 1, otherwise class 0.

[[record]]
molecule = "C#CCN1CCC(C(=O)NO)(S(=O)(=O)c2ccc(S(=O)(=O)c3ccccc3)cc2)CC1 [Example 457]"
group = "class 0"

[[record]]
molecule = "O=C(c1ccc(Cl)cc1)C1CCN(c2ccc(S(=O)(=O)C3(C(=O)NO)CCOCC3)cc2)CC1 [Example 857]"
group = "class 1"

[[record]]
molecule = "O=C(c1ccco1)N1CCC(C(=O)NO)(S(=O)(=O)c2ccc(N3CCC(OCc4ccc(F)cc4C(F)(F)F)CC3)cc2)CC1 [Example 434]"
group = "class 0"

[[record]]
molecule = "Cc1ccc(C2CCN(c3ccc(S(=O)(=O)C4(C(=O)NO)CCOCC4)cc3)CC2)cc1C [Example 869]"
group = "class 1"

[[record]]
molecule = "CCN1CCN(c2ccc(S(=O)(=O)C3(C(=O)NO)CCOCC3)cc2)CC1 [Example 622]"
group = "class 1"

[[record]]
molecule = "COc1cccc(NC(=O)C2CCN(c3ccc(S(=O)(=O)C4(C(=O)NO)CCOCC4)cc3)CC2)c1 [Example 72]"
group = "class 1"

[[record]]
molecule = "O=C(NO)C1(S(=O)(=O)c2ccc(N3CCCCC3CCOCc3ccc(F)cc3)cc2)CCOCC1 (stereo not shown) [Example 510]"
group = "class 0"


---

target_of_assay: MMP-13 (Homo sapiens, UniProt P45452)
Construct: made in house; host or cells: baculovirus / insect cells
method_notes: biochemical
recorded_conditions: recombinant human MMP-13, MCA peptide substrate 4 μM, pH 7.5, room temperature; read-out: MMP-13 IC50
Procedure: The compounds prepared in the manner described in the Examples above were assayed for activity by an in vitro assay. […] Briefly, 4-aminophenylmercuric acetate (APMA) or trypsin-activated MMPs were incubated with various concentrations of the inhibitor compound at room temperature for 5 minutes. […] Inhibition was measured as a reduction in fluorescent intensity as a function of inhibitor concentration, using a Perkin Elmer L550 plate reader. The IC50 values were calculated from those values. […]
pIC50: −log10 of the molar value.
Attribute: pIC50
endpoint_name: pIC50

[[record]]
compound = "O=C(CNCCO)N1CCC(C(=O)NO)(S(=O)(=O)c2ccc(Oc3ccc(C(F)(F)F)cc3)cc2)CC1 [Example 321]"
meas_value = 9.30

[[record]]
compound = "O=C(NO)C1(S(=O)(=O)c2ccc(N3CCN(S(=O)(=O)c4ccccc4C(F)(F)F)CC3)cc2)CCOCC1 [Example 675]"
meas_value = 7.89

[[record]]
compound = "O=C(NO)C1(S(=O)(=O)c2ccc(N3CCC(Oc4c(Cl)cc(C(F)(F)F)cc4Cl)CC3)cc2)CCOCC1 [Example 570]"
meas_value = 6.54

[[record]]
compound = "CS(=O)(=O)c1ccccc1S(=O)(=O)N1CC(Oc2ccc(S(=O)(=O)C3(C(=O)NO)CCOCC3)cc2)C1 [Example 845]"
meas_value = 7.54

[[record]]
compound = "O=C(NO)C1(S(=O)(=O)c2ccc(N3CCC(CCOCc4ccc(F)cc4)CC3)cc2)CCOCC1 [Example 500]"
meas_value = 8.52

[[record]]
compound = "COCCN(CCOC)CC(=O)N1CCC(C(=O)NO)(S(=O)(=O)c2ccc(N3CCC(C(=O)N4CC(C)CC(C)C4)CC3)cc2)CC1 (centres unmarked) [Example 303]"
meas_value = 6.94

[[record]]
compound = "COc1ccc(S(=O)(=O)N2CCN(c3ccc(S(=O)(=O)C4(C(=O)NO)CCOCC4)cc3)CC2)cc1 [Example 678]"
meas_value = 8.30

[[record]]
compound = "CC1(C)CC2CC(C)(CN2c2ccc(S(=O)(=O)C3(C(=O)NO)CCOCC3)cc2)C1 (centres unmarked) [Example 214]"
meas_value = 5.31

[[record]]
compound = "O=C(NO)C1(S(=O)(=O)c2ccc(N3CCC(OCc4ccc(Cl)c(Cl)c4)CC3)cc2)CCOCC1 [Example 176]"
meas_value = 8.40

[[record]]
compound = "CCOc1cc(N2CCC(C(=O)NO)(S(=O)(=O)c3ccc(Oc4ccc(OC(F)(F)F)cc4)cc3)CC2)ncn1 [Example 411]"
meas_value = 9.70

[[record]]
compound = "O=C(NO)C1(S(=O)(=O)c2ccc(Oc3ccncc3)cc2)CCSCC1 [Example 151]"
meas_value = 6.57

[[record]]
compound = "O=C(Nc1cccnc1)OC1CCN(c2ccc(S(=O)(=O)C3(C(=O)NO)CCOCC3)cc2)CC1 [Example 465]"
meas_value = 7.10

[[record]]
compound = "CCCOC1CCN(c2ccc(S(=O)(=O)C3(C(=O)NO)CCOCC3)cc2)CC1 [Example 168]"
meas_value = 7.30

[[record]]
compound = "CC1CC(C)CN(C(=O)C2CCN(c3ccc(S(=O)(=O)C4(C(=O)NO)CCN(C(=O)CN5CCN(CCN(C)C)CC5)CC4)cc3)CC2)C1 (centres unmarked) [Example 308]"
meas_value = 7.40

[[record]]
compound = "O=C(NO)C1(S(=O)(=O)c2ccc(N3CCN(C4CCCCC4)CC3)cc2)CCOCC1 [Example 489]"
meas_value = 6.11

[[record]]
compound = "CCNCC(=O)N1CCC(C(=O)NO)(S(=O)(=O)c2ccc(N3CCC(C(=O)N4CC(C)CC(C)C4)CC3)cc2)CC1 (centres unmarked) [Example 277]"
meas_value = 7.15

[[record]]
compound = "COc1cccc(S(=O)(=O)N2CCN(c3ccc(S(=O)(=O)C4(C(=O)NO)CCOCC4)cc3)CC2)c1 [Example 696]"
meas_value = 8.00

[[record]]
compound = "CCN(CC)Cc1ccc(COC2CCN(c3ccc(S(=O)(=O)C4(C(=O)NO)CCOCC4)cc3)CC2)cc1 [Example 523]"
meas_value = 8.62

[[record]]
compound = "Cc1ccc(OC2CCN(c3ccc(S(=O)(=O)C4(C(=O)NO)CCOCC4)cc3)CC2)cc1 [Example 619]"
meas_value = 8.37

[[record]]
compound = "O=C(NO)C1(S(=O)(=O)c2ccc(Oc3ccc(OC(F)(F)F)cc3)cc2)CCN(C(=S)NCCN2CCCCC2)CC1 [Example 200]"
meas_value = 9.70

[[record]]
compound = "O=C(NO)C1(S(=O)(=O)c2ccc(Oc3ccc(OC(F)(F)F)cc3)cc2)CCN(S(=O)(=O)Cc2ccccc2)CC1 [Example 195]"
meas_value = 9.00

[[record]]
compound = "CC(C)c1ccc(C(=O)C2CCN(c3ccc(S(=O)(=O)C4(C(=O)NO)CCOCC4)cc3)CC2)cc1 [Example 788]"
meas_value = 8.52

[[record]]
compound = "C[C@@H]1C[C@H](C)CN(C(=O)C2CCN(c3ccc(S(=O)(=O)C4(C(=O)NO)CCN(C(=O)OC(C)(C)C)CC4)cc3)CC2)C1 [Example 241]"
meas_value = 8.32

[[record]]
compound = "Cc1ccc(S(=O)(=O)N(C)C2CCN(c3ccc(S(=O)(=O)C4(C(=O)NO)CCOCC4)cc3)CC2)cc1 [Example 834]"
meas_value = 6.82

[[record]]
compound = "Cc1cccc(COC2CCC(Oc3ccc(S(=O)(=O)C4(C(=O)NO)CCOCC4)cc3)C2)c1 (centres unmarked) [Example 706]"
meas_value = 8.37

[[record]]
compound = "O=C(c1ccccc1)N1CCN(c2ccc(S(=O)(=O)C3(C(=O)NO)CCOCC3)cc2)CC1 [Example 593]"
meas_value = 6.38

[[record]]
compound = "O=C(NO)C1(S(=O)(=O)c2ccc(N3CCCC3)cc2)CCOCC1 [Example 81]"
meas_value = 7.22

[[record]]
compound = "O=C(CCCCNCc1cccnc1)N1CCC(C(=O)NO)(S(=O)(=O)c2ccc(Oc3ccc(C(F)(F)F)cc3)cc2)CC1 [Example 333]"
meas_value = 9.10

[[record]]
compound = "N#Cc1cccc(COC2CCN(c3ccc(S(=O)(=O)C4(C(=O)NO)CCOCC4)cc3)CC2)c1 [Example 560]"
meas_value = 8.35

